Value source: PubChem BioAssay (NCI)

- Tested on: NCI/ADR-RES ovarian
- testDescription: NCI tumour cell line growth inhibition, 48 h
Where a SMILES comes first, the peptide text is derived from it. [ ]: non-standard residue; d: D form. The star is where a group is joined. ξ: configuration not given here. X3 = COc1ccc(C(N*)c2ccc(OC)cc2)cc1; NMeF = CN[C@@H](Cc1ccccc1)C(=O)O; NMeD = CN[C@@H](CC(=O)O)C(=O)O; NMeV = CN[C@H](C(=O)O)C(C)C; ξNMeV = CNC(C(=O)O)C(C)C; Boc = CC(C)(C)OC(=O)*; ξNMeA = CNC(C)C(=O)O; ξV = CC(C)C(N)C(=O)O
Assign TGI to each entry below.

Item COc1ccc(C(NC(=O)C[C@@H](C(=O)N(C)C(C)C(=O)O)N(C)C(=O)[C@@H]2CCCN2C(=O)[C@H](C(C)C)N(C)C(=O)C(C(C)C)N(C)C(=O)[C@H](Cc2ccccc2)N(C)C(=O)C(NC(=O)OC(C)(C)C)C(C)C)c2ccc(OC)cc2)cc1 (stereo partly drawn) (Boc-[ξV][NMeF][ξNMeV][NMeV]P[NMeD](X3)[ξNMeA]-OH) : provide TGI
> 37.5 µM

Item COc1ccc(C2[C@@H](c3ccccc3)C(=O)N2c2cc(OC)c(OC)c(OC)c2)cc1F (stereo partly drawn) : provide TGI
> 100 µM

Item `O=CNc1ccc2c(c1)C(=O)c1ccccc1-2` : provide TGI
> 100 µM

----------
- Test system: PC-3 prostate
- testDescription: NCI tumour cell line growth inhibition, 48 h
endpointLabel: TGI (µM)
Form entry: value (µM) — number only.

// fetch TGI; item: `Cc1cccc(Cn2c3c(c4cc(O)ccc42)C(=O)c2ccccc2C3=O)c1` ; system: PC-3 prostate
38.4

// fetch TGI; item: `Oc1ccc(-c2nc3ccc(Br)cc3s2)cc1` ; system: PC-3 prostate
54.8

----------
- Tested on: CCRF-CEM leukemia
- testDescription: NCI tumour cell line growth inhibition, 48 h
Assign log10 of TGI to each entry below.
Please be aware that the numbers have been log10-transformed from TGI in µM.

Item C(=C(c1ccc(OC2CCCCO2)cc1)c1ccc(OC2CCCCO2)cc1)c1ccccc1 (stereo not given) : provide log10 of TGI
0.82

Item `Nn1c(Nc2ccc(S(=O)(=O)Nc3ncccn3)cc2)nnc(/C=C/c2c(O)ccc3ccccc23)c1=O` : provide log10 of TGI
1.68

Item `O=C(/C=C/c1ccc([N+](=O)[O-])cc1)c1ccc(NCc2nc3ccccc3[nH]2)cc1` : provide log10 of TGI
0.79

Item `Cc1cc(C)nc(NS(=O)(=O)c2ccc(NC(=O)c3ccc4nc5ccccc5c(Nc5ccc(S(N)(=O)=O)cc5)c4c3)cc2)n1` : provide log10 of TGI
1.89

Item `COc1cc(/C(C#N)=C/c2nc3c(N4CCOCC4)nc(Cl)nc3n2C)cc(OC)c1OC` : provide log10 of TGI
-0.18

----------
- Test system: 786-0 renal
- testDescription: NCI tumour cell line growth inhibition, 48 h
Assign GI50 to each entry below.

Item `COCCOc1ccc(-c2nc3ccc(-c4nc5ccc(N6CCN(C)CC6)cc5[nH]4)cc3[nH]2)cc1` : provide GI50
1.64 µM

Item `N#Cc1c[nH]n2c(N=Nc3ccc(Cl)cc3)c(O)nc12` : provide GI50
51.6 µM

Item `COc1cc(-c2ccc3cc(OC)c(OC)c(OC)c3c2)cc(OC)c1OC` : provide GI50
20.9 µM

Item `COc1ccc(/C=N/NC(=O)c2cccc3cc[nH]c23)cc1O` : provide GI50
5.13 µM

Item `Cc1ccc(-n2c3nc(=O)[nH]c(=O)c-3cc3cc([N+](=O)[O-])ccc32)cc1` : provide GI50
10.3 µM

Item `N[C@@H]1CCCC[C@@H]1N.O=P([O-])([O-])CN(CCN(CP(=O)([O-])[O-])CP(=O)([O-])[O-])CP(=O)([O-])[O-].[Pt+2]` : provide GI50
> 25 µM

Item `O=C(/C(=C/c1ccc([N+](=O)[O-])cc1)SCc1ccccc1)c1ccc(Cl)cc1` : provide GI50
1.77 µM

----------
- System: TK-10 renal
- testDescription: NCI tumour cell line growth inhibition, 48 h
endpointLabel: TGI (µM)
Form entry: value (µM) — number only.

// fetch TGI; item: C[C@]12CCC3c4ccc(O)cc4CCC3C1CC[C@@]2(O)CNC(=O)/C=C/c1ccc(O)c(O)c1 (stereo not given in full) ; system: TK-10 renal
13.7

// fetch TGI; item: `Nc1c(C(=O)Nc2cccc(C(F)(F)F)c2)sc2nc3c(cc12)CCCCC3` ; system: TK-10 renal
4.47

// fetch TGI; item: `CCCCCC1=CC(=O)C1(Cl)Cl` ; system: TK-10 renal
20.8

// fetch TGI; item: `CCCCOC(=O)Nc1ccc(S(=O)(=O)Nc2ccccc2Cl)cc1` ; system: TK-10 renal
46.6

// fetch TGI; item: `O=C(/C=C/c1ccc([N+](=O)[O-])cc1)c1ccc(NCc2nc3ccccc3[nH]2)cc1` ; system: TK-10 renal
19.9

----------
- System: HCT-116 colon
- testDescription: NCI tumour cell line growth inhibition, 48 h
Assign TGI to each entry below.
Form entry: value (µM) — number only.

Item `Cc1cc(I)cc(CN(CCCN(C)C)C(C)C)c1O` : provide TGI
25.1

Item `CCN(CC)C(=S)N/N=C/c1cc([N+](=O)[O-])ccc1O` : provide TGI
12

Item `Nc1nccc(-c2c[nH]c3cc(Br)ccc23)n1` : provide TGI
40.2

Item O=C(C1OC1c1ccc(Br)cc1O)C12CC3CC(CC(C3)C1)C2 (stereo not given) : provide TGI
30.9

Item `COc1ccc2cc1Oc1ccc(cc1)C[C@H]1c3cc(c(OC)cc3CCN1C)Oc1c(O)c(OC)cc3c1[C@H](C2)N(C)CC3` : provide TGI
36

Item COc1ccc(C2[C@@H](c3ccccc3)C(=O)N2c2cc(OC)c(OC)c(OC)c2)cc1F (stereo not given in full) : provide TGI
10.4

Item C[C@]12CCC3C4=C(CCC3C1CCC2=O)C(=O)[C@H]1O[C@H]1C4=O (stereo not given in full) : provide TGI
2.16

Item C(=C(c1ccc(OC2CCCCO2)cc1)c1ccc(OC2CCCCO2)cc1)c1ccccc1 (stereo not given) : provide TGI
1.64

----------
- System: A498 renal
- testDescription: NCI tumour cell line growth inhibition, 48 h
Assign log10 TGI to each entry below.
Please be aware that the numbers have been log10-transformed from TGI in µM.

Item `O=C(/C=C/c1ccc(O)cc1)c1ccc(O)cc1` : provide log10 TGI
1.81

Item `N#CC(C#N)=C/C=C(\Sc1nc2ccccc2s1)c1ccc(Cl)cc1` : provide log10 TGI
1.46

Item `CN(C)c1cc(NN=C(c2ccc(O)cc2)c2ccc(O)cc2)c([N+](=O)[O-])cc1[N+](=O)[O-]` : provide log10 TGI
1.33

Item `COCCOc1ccc(-c2nc3ccc(-c4nc5ccc(N6CCN(C)CC6)cc5[nH]4)cc3[nH]2)cc1` : provide log10 TGI
0.53

Item CC(C)=CCC(O)C1=CC(=O)c2c(O)ccc(O)c2C1=O (stereo not given) : provide log10 TGI
0.61

Item `CCn1c(-c2nonc2N)nc2c(C#CC(C)(C)O)nc(OC[C@@H](N)c3ccccc3)cc21` : provide log10 TGI
1.09

Item `COc1ccc(CN2C(=O)/C(=C\c3cc(OC)c(OC)c(OC)c3)c3ccccc32)cc1` : provide log10 TGI
1.16

----------
- Test system: SNB-78 CNS
- testDescription: NCI tumour cell line growth inhibition, 48 h
Where a SMILES comes first, the peptide text is derived from it. [ ]: non-standard residue; d: D form. The star is where a group is joined. ξ: configuration not given here. X3 = COc1ccc(C(N*)c2ccc(OC)cc2)cc1; NMeF = CN[C@@H](Cc1ccccc1)C(=O)O; NMeD = CN[C@@H](CC(=O)O)C(=O)O; NMeV = CN[C@H](C(=O)O)C(C)C; ξNMeV = CNC(C(=O)O)C(C)C; Boc = CC(C)(C)OC(=O)*; ξNMeA = CNC(C)C(=O)O; ξV = CC(C)C(N)C(=O)O
I would appreciate it if you labelled entries criterion met when TGI is 40 µM or higher, otherwise criterion not met.

Decide: TGI of CCCCCC[C@@H]1CCC2C(CO)[C@@H](O)CC[C@@H]2C1 (some centres not stated) >= 40 µM?
criterion met

Decide: TGI of COc1ccc(C(NC(=O)C[C@@H](C(=O)N(C)C(C)C(=O)O)N(C)C(=O)[C@@H]2CCCN2C(=O)[C@H](C(C)C)N(C)C(=O)C(C(C)C)N(C)C(=O)[C@H](Cc2ccccc2)N(C)C(=O)C(NC(=O)OC(C)(C)C)C(C)C)c2ccc(OC)cc2)cc1 (some centres not stated) (Boc-[ξV][NMeF][ξNMeV][NMeV]P[NMeD](X3)[ξNMeA]-OH) >= 40 µM?
criterion not met

Decide: TGI of `Cc1ccc(/C=C/C(=O)c2cccc3ccccc23)cc1` >= 40 µM?
criterion not met

Decide: TGI of C/C(=N/Nc1ccc([N+](=O)[O-])cc1[N+](=O)[O-])C(CC(C(=O)NCc1ccccc1)/C(C)=N\Nc1ccc([N+](=O)[O-])cc1[N+](=O)[O-])C(=O)NCc1ccccc1 (configuration not stated) >= 40 µM?
criterion not met

Decide: TGI of CCc1c(OC(C)=O)c2c(NC3OCC(OC(C)=O)C(OC(C)=O)C3OC(C)=O)nc(SC)nc2oc1=O (configuration not stated) >= 40 µM?
criterion met

Decide: TGI of COc1nc(NC2OC(COC(C)=O)C(OC(C)=O)C(OC(C)=O)C2OC(C)=O)c2c(OC(C)=O)cc(=O)oc2n1 (configuration not stated) >= 40 µM?
criterion met

Decide: TGI of Cc1ccc(NC(=O)CC2Sc3ccccc3NC2=O)cc1C (configuration not stated) >= 40 µM?
criterion met

Decide: TGI of `COC(=O)[C@@H](O)[C@](O)(CCC(C)C)C(=O)O[C@@H]1C(OC)=C[C@]23CCCN2CCc2cc4c(cc2[C@H]13)OCO4` >= 40 µM?
criterion not met

Decide: TGI of `O=C1C=CC(=O)c2nc3c(cc21)CCC3` >= 40 µM?
criterion met

Decide: TGI of `CC(=O)O/N=C(/C)c1ccccc1O` >= 40 µM?
criterion met

Decide: TGI of Nc1nc(SCCC/C=C/I)nc2c1ncn2C1OC(COP(=O)(O)O)C(O)C1O (configuration not stated) >= 40 µM?
criterion met

Decide: TGI of `O=S(=O)(N/N=C/c1cccc(/C=N/NS(=O)(=O)c2ccccc2)c1)c1ccccc1` >= 40 µM?
criterion met
